TARGET_OR_TEST_SYSTEM: BK virus VP1 protein, genotype IV (BK virus)
ASSAY_METHOD_TEXT: cell-based or functional assay
Overview of recorded EC50, pseudovirus neutralization for various binders
READOUT_KIND: EC50, pseudovirus neutralization (nM)

1. 6H12 (antibody, V domains shown) VH: EVQLVESGGGLVQPGGSLRLSCAASGFTFSSYEMNWVRQAPGKGLEWVSYISSGGSSIKYADSVRGRFAFSRDNAENSVHLQMNSLRAEDTAVYYCARVGGSYYYSYAMDVWGQGTAVTVSS VL: DIQLTQSPSFLSASVGDRVTITCWASQDISSYLAWYQQKPGKAPKLLIYAASTLQSGVPSRFTGSGSGTEFTLTISSLQPEDFATYYCQQPHNSPFSFGPGTKVDVK; 2.21
2. 9B4 (antibody, V domains shown) VH: QVQLVESGGDLVKPGGSLRLSCVASGFTFSDYYMNWIRLPPGKGLEWISYIDSSAGAIYYADSVKGRFTVSRDDAKNSLFLHMNSLRADDTAVYYCARERREGHKIFDFWGPGTLVTVSS VL: DIVMTQSPDSLALSLGERATINCKSSQNILYSSNNKNYLACYQQKAGQPPKLLIFWSSTRESGVPDRFSGSGSGTDFTLTISSLQAEDVAVYYCQQYYSSPYNFGRGTTLEIK; 0.0118
3. 7A4 (antibody, V domains shown) VH: QVQLVESGGDLVKPGGSLRLSCVASGFTFSDYYMNWIRLPPGKGLEWISYIDSSAGAIYYADSVKGRFTVSRDDAKNSLFLHMNSLRADDTAVYYCVRERRDGHKIFDYWGPGTLVTVSS VL: DIVMTQSPDSLAVSLGERATINCKSSQNILYSSNNKNYLAWYQQKAGQPPKLLIFWSSIRESGVPDRFSGSGSGTDFTLTISSLQAEDVAVYYCQQYYSSPYNFGRGTTLEIK; 0.0251
